# Experiment Summary: Single dose pharmacokinetics in mice
# Type: in vivo, mouse
# Condition Label: female, heterozygous Foxn1nu/Foxn1+, mouse, plasma, iv, 4 mg/kg, clearance, mice, IV 4 mg/kg, plasma
Assay Endpoint: clearance (mL/min/kg)

In [3]: df
Out[3]:
                                   compound  unit_string  data_value
0  COc1ccc(C2=Nn3c(nnc3-c3cc(-c4ccc(Cl)cc4)n[nH]3)SC2C)cc1 (stereo not shown)    mL/min/kg        65.2

====

# Experiment Summary: Single dose pharmacokinetics in mice
# Format: in vivo, mouse
# Condition Label: female, heterozygous Foxn1nu/Foxn1+, mouse, lung, po, 30 mg/kg
Assay Endpoint: Tmax (min)

>>> df
                                   compound  data_value
0  COc1ccc(C2=Nn3c(nnc3-c3cc(-c4ccc(Cl)cc4)n[nH]3)SC2C)cc1 (stereo not shown)           5
